- targetOrSystem: T1, FC5DIE3IR recombinant protein
- T1 construct: Made in CHO-3E7 cells; also called FC5DIE31R; FC5DIE3R
- assayOverview: phage ELISA, phage supernatant on coated FC5DIE3IR or PBS wells, anti-M13-HRP, TMB
- Experimental: FIG. 25A Phages were rescued from individual colonies, selected from the fourth round of panning and grown overnight at 37° C. Wells of a Nunc microtiter plate were coated with FC5DIE3IR and FC5 proteins at 5 μg/ml in PBS. […] Binding was detected with TMB substrate and A450 was measured using an ELISA plate reader. Additional rounds (up to 3) of panning were performed by coating the ELISA plate with the same proteins and using the amplified phages after each round of panning as described above. […]
propertyLabel: binding result

GET /value?item= VHH DI-E (VHH, From the naive LAC-M library; also called clone E; not shown: 6xHis and c-Myc tags on the soluble monomer) VHH: QVKLEESGGGLVQPGGSLRLSCAASEFTFSSSWGHWVRQAPGKGLKWVSSINSGGEGTYYADSVKGRFTISRDNGKNTLYLEMNSLKSEDTAVYYCTSASGAWGQGIQVTVSS &field=binding result returns binds

Entry VHH DI-A (VHH, From the naive LAC-M library; soluble tagged monomer in protein ELISA and patch clamp; also called clone A; not shown: 6xHis and c-Myc tags on the soluble monomer) VHH: QVQLVESGGGLVQPGGSLRLSCAASGRTISSFTMGWFRQAPGAEREFVAAISRSGSSTVYAGSVKGRFTISRDNAKNTVYLQMNSLKPEDTAVYYCNAVITEPLYKTDDSYWGQGTQVTVSS — recorded binding result = binds

GET /value?item= VHH DI-C (VHH, From the naive LAC-M library; soluble tagged monomer in protein ELISA and patch clamp; also called clone C; not shown: 6xHis and c-Myc tags on the soluble monomer) VHH: QVKLEESGGGLVQPGESLRLSCVGSGFNFRIQAMAWFRQAPGKEREFVASISGSGATTDHADSVKGRFAISKDNARDTMYLQMNNLKPEDTAVYYCYAISQHVPPYHYWGQGTQVTVSS &field=binding result returns binds

Just for reference, patent US20210206842A1 is where these values come from.
